experiment: qHTS of pediatric cancer cell lines to identify multiple opportunities for drug repurposing: Confirmatory screen for SJ-GBM2 cells (AID 1347116); settings: SJ-GBM2 glioblastoma cells, viability; series mostly up to 45.9 µM;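 also: 48 hour compound exposure; nearly all actives have a fitted effect of over 60% in size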
Inconclusive results are not listed. Activity calls are given as the source filed them. Calls follow the shape of the dose curve; as a rule, active = well fitted cell-killing curve with a large enough effect; inconclusive = small, poorly fitted or top-dose-only effect, or effect the other way; inactive = no such curve, though single readings can be large or run the other way.
Classes used: true for active, false for inactive

compound: C[C@]1(c2nc3c(C(N)=O)cccc3[nH]2)CCCN1
assigned-category: false
//
compound: COc1cc(Nc2ncc3c(n2)-c2ccc(Cl)cc2C(c2c(F)cccc2OC)=NC3)ccc1C(=O)O
assigned-category: false
//
compound: CS(=O)(=O)c1ccc(C(=O)Nc2ccc(Cl)c(-c3ccccn3)c2)c(Cl)c1
assigned-category: false
//
compound: COc1ccc(-c2ccc3c(N4CCOCC4)nc(N4C[C@@H](C)O[C@@H](C)C4)nc3n2)cc1CO
assigned-category: true
//
compound: CCC(C)n1ncn(-c2ccc(N3CCN(c4ccc(OC[C@H]5CO[C@](Cn6cncn6)(c6ccc(Cl)cc6Cl)O5)cc4)CC3)cc2)c1=O (stereo not given in full)
assigned-category: false
//
compound: COc1cc2nccc(Oc3ccc(NC(=O)NC4CC4)c(Cl)c3)c2cc1C(N)=O
assigned-category: false
//
compound: OC(CN1CCC(Cc2ccc(F)cc2)CC1)c1ccc(Cl)cc1 (stereo not given)
assigned-category: false
//
compound: O=C(c1cc(Cc2n[nH]c(=O)c3ccccc23)ccc1F)N1CCN(C(=O)C2CC2)CC1
assigned-category: false
//
compound: NC(N)=NC(=O)c1nc(Cl)c(N)nc1N
assigned-category: false
//
compound: Cc1cn[nH]c1
assigned-category: false

###

Assay: High-throughput drug toxicity screening in the BPDCN cell line Gen2.2 (AID 1224824);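 also: cells exposed to compounds for 48 h before reading; 100% = DMSO and 0% = bortezomib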
Conditions: Gen2.2 BPDCN cells; at 45.8 µM (top of the series) unless noted
Description: Blastic plasmacytoid dendritic cell neoplasm (BPDCN) is a rare, aggressive and largely incurable hematologic malignancy originating from plasmacytoid dendritic cells (pDCs). Although an initial response to chemotherapy is common, BPDCN prognosis is extremely poor and most patients relapse with drug-resistant disease leading to a median overall survival of ~1 year after diagnosis. […]
measurement-kind: cell viability, % of control (lower = more cytotoxic) (%)

compound: COc1cc2c(cc1OC)CN(CCc1ccc(NC(=O)c3cccc4c(=O)c5cccc(OC)c5[nH]c34)cc1)CC2
unit-abbrev: %
reported-value: 238
--
compound: CCOc1cc(N2CCC(O)CC2)ccc1Nc1ncc2c(n1)N(C)c1ccccc1C(=O)N2C
unit-abbrev: %
reported-value: 6.39
--
compound: Nc1nc2c(ncn2COCCO)c(=O)[nH]1
unit-abbrev: %
reported-value: 126
--
compound: OCCC#Cc1nc(-c2ccc(F)cc2)c(-c2ccncc2)n1CCCc1ccccc1
unit-abbrev: %
reported-value: 98.7
--
compound: Cc1[nH]c(=O)c(C#N)cc1-c1ccc2nccn2c1
unit-abbrev: %
reported-value: 220
--
compound: Cc1c(CCOc2ccc(C(=O)O)cc2)c2cc(Cl)ccc2n1C(c1ccccc1)c1ccccc1
unit-abbrev: %
reported-value: 222
--
compound: N=c1nc(N2CCCCC2)cc(N)n1O
unit-abbrev: %
reported-value: 450
--
compound: CCCC(CCC)C(=O)O
unit-abbrev: %
reported-value: 83.8
--
compound: Clc1ccc(Nc2nnc(Cc3ccncc3)c3ccccc23)cc1
unit-abbrev: %
reported-value: 117
--
compound: COc1ccc(C2=N[C@H](c3ccc(Cl)cc3)[C@H](c3ccc(Cl)cc3)N2C(=O)N2CCNC(=O)C2)c(OC(C)C)c1
unit-abbrev: %
reported-value: 4.67
--
compound: Cc1cc(C=c2sc3nc4ccccc4n3c2=O)c(C)n1-c1ccccc1
unit-abbrev: %
reported-value: 74.1
--
compound: Cc1cccc(-c2nn(C(=S)Nc3ccccc3)cc2-c2ccnc3ccccc23)n1
unit-abbrev: %
reported-value: 560
--
compound: CCCS(=O)(=O)Nc1ccc(F)c(C(=O)c2c[nH]c3ncc(-c4ccc(Cl)cc4)cc23)c1F
unit-abbrev: %
reported-value: 453
--
compound: CS(=O)(=O)Oc1ccc2c(NC(N)=O)c(C(=O)c3ccc(Cl)cc3Cl)oc2c1
unit-abbrev: %
reported-value: 153
--
compound: C[C@H](NC(=O)Cc1cc(F)cc(F)c1)C(=O)N[C@@H]1C(=O)N(C)c2ccccc2-c2ccccc21
unit-abbrev: %
reported-value: 176
--
compound: Oc1ccc(C2CNCCc3c2cc(O)c(O)c3Cl)cc1 (stereo unspecified)
unit-abbrev: %
reported-value: 156
--
compound: COCCNCCCn1c(C(=O)CF)c(-c2ccc(C)cc2)c2c(N)ncnc21
unit-abbrev: %
reported-value: 77.9
--
compound: Cn1cnc([N+](=O)[O-])c1Sc1ncnc2nc[nH]c12
unit-abbrev: %
reported-value: 16.2
--
compound: Fc1ccc(Cl)cc1-c1nc(Nc2ccncc2)c2nccnc2n1
unit-abbrev: %
reported-value: 443
--
compound: Cc1[nH]c(=O)c(C#N)cc1-c1ccncc1
unit-abbrev: %
reported-value: 244

###

test: qHTS for Activators of Parkin Expression: LOPAC Validation Assay (NLuc Reporter) (AID 720572; also: potency is read from the fitted curve at half-maximal effect;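 as to activation: 0% = DMSO and 100% = positive control compound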); details: Parkin promoter NanoLuc reporter cells, luminescence; series mostly up to 46.1 µM
Inconclusive results are not listed. Calls of active or inactive are those of the source. Calls follow the shape of the dose curve; as a rule, active = well fitted activation curve with a large enough effect; inconclusive = small, poorly fitted or top-dose-only effect; inactive = flat fitted curve, though single readings scatter.

molecule: CC(C)(Sc1ccc(CCN(CCCCC2CCCCC2)C(=O)NC2CCCCC2)cc1)C(=O)O
Potency: inactive
//
molecule: Cc1cc2c(C(C)C)c(O)c(O)c(C=O)c2c(O)c1-c1c(C)cc2c(C(C)C)c(O)c(O)c(C=O)c2c1O
Potency: inactive
//
molecule: CCN(CC)CCCC(C)Nc1ccnc2cc(Cl)ccc12 (stereo unspecified)
Potency: inactive
//
molecule: Nc1ccc(S(=O)(=O)Nc2ccnn2-c2ccccc2)cc1
Potency: inactive
//
molecule: CCOC(=O)C1=C[C@]2(CC)CCCN3CCc4c(n1c1ccccc41)[C@@H]32
Potency: inactive
//
molecule: CCC(C)N(C)C(=O)c1cc2ccccc2c(-c2ccccc2Cl)n1 (stereo unspecified)
Potency: 20.6 µM (active)

###

test: Quantitative High-Throughput drug screen in 47 multiple myeloma cell lines against the NCATS MIPE library collection: KMS12BM_JCRB cell viability assay (AID 1918971); conditions: KMS12BM myeloma viability, CellTiter-Glo ATP, 48 h; series mostly up to 45.8 µM; also: nearly all actives have a fitted effect of over 35% in size
Records with an inconclusive call do not appear. Activity calls are given as the source filed them. Calls follow the shape of the dose curve; as a rule, active = well fitted cell-killing curve with a large enough effect; inconclusive = small, poorly fitted or top-dose-only effect, or effect the other way; inactive = no such curve, though single readings can be large or run the other way.
Classes used: Yes for active, No for inactive

compound: CC(C)C[C@H](NC(=O)[C@@H](O)[C@H](N)Cc1ccccc1)C(=O)O
assigned-category: Yes
//
compound: N[C@@H]1CONC1=O
assigned-category: No
//
compound: OC(CN1CCC(Cc2ccc(F)cc2)CC1)c1ccc(Cl)cc1 (stereo unspecified)
assigned-category: No
//
compound: COc1ccc([C@@H]2CC(=O)c3c(O)cc(O[C@@H]4O[C@H](CO[C@@H]5O[C@@H](C)[C@H](O)[C@@H](O)[C@@H]5O)[C@@H](O)[C@H](O)[C@@H]4O)cc3O2)cc1O
assigned-category: No
//
compound: O=S(=O)(N=Cc1c(O)ccc2ccccc12)c1cccs1
assigned-category: No
//
compound: Cc1ccc(NC(=O)c2cccc(C(C)(C)C#N)c2)cc1Nc1ccc2ncn(C)c(=O)c2c1
assigned-category: Yes
//
compound: O=C1CCCC2=C1C(c1[nH]ncc1Cl)N=C(Nc1nc3ccccc3o1)N2 (stereo unspecified)
assigned-category: Yes
//
compound: Nc1nc2ccc(OC(F)(F)F)cc2s1
assigned-category: Yes
//
compound: C#Cc1cccc(Nc2ncnc3cc(OCCOC)c(OCCOC)cc23)c1
assigned-category: Yes
//
compound: Cc1c(CCOc2ccc(C(=O)O)cc2)c2cc(Cl)ccc2n1C(c1ccccc1)c1ccccc1
assigned-category: Yes
//
compound: O=C1[C@H](Cc2ccc(O)cc2)N2C(=O)CCN(C(=O)NCc3ccccc3)[C@H]2CN1Cc1cccc2ccccc12
assigned-category: Yes
//
compound: COc1ccc(-c2ccc3c(N4CCOCC4)nc(N4C[C@@H](C)O[C@@H](C)C4)nc3n2)cc1CO
assigned-category: Yes
//
compound: COc1ccc(CCN2CCN(CCCc3ccccc3)CC2)cc1OC
assigned-category: No
//
compound: Clc1ccc(Nc2nnc(Cc3ccncc3)c3ccccc23)cc1
assigned-category: Yes
//
compound: CCOc1ccc(Cc2cc([C@@H]3O[C@H](CO)[C@@H](O)[C@H](O)[C@@H]3O)ccc2Cl)cc1
assigned-category: No
//
compound: Cc1ccnc(NS(=O)(=O)c2ccc(NC(=O)Nc3ccc(S(=O)(=O)Nc4nccc(C)n4)cc3)cc2)n1
assigned-category: Yes
//
compound: CCn1cc(C(=O)O)c(=O)c2cc(F)c(N3CCNC(C)C3)c(F)c21 (stereo unspecified)
assigned-category: No
//
compound: O=C(c1cc(Cc2n[nH]c(=O)c3ccccc23)ccc1F)N1CCN(C(=O)C2CC2)CC1
assigned-category: No
//
compound: Cc1cn[nH]c1
assigned-category: Yes
//
compound: CCCC(CCC)C(=O)O
assigned-category: No
//
compound: COc1ccc(COc2cc3oc(=O)c4cc(C(C)O)ccc4c3cc2OC)cc1 (stereo unspecified)
assigned-category: Yes
